- Tested on: S. typhimurium TA100
- testMethodNotes: Microdilution assay, MIC
- Assay type: cell-based
- conditionDetails: Salmonella enterica, 20 h, read-out: MIC S. typhimurium TA100
Kindly supply the reported MIC values for the records listed here.
One number for each entry, in µg/mL.

# count of solved cases: 2
molecule	unitOfMeasure	MIC
COc1c(NC(=O)c2ccc(NC(=O)c3ccc(NC(=O)[C@H](CN(C)C)NC(=O)c4ccc(NC(=O)/C(C)=C/c5ccc(O)cc5)cc4)cc3)c(OC)c2O)ccc(C(=O)O)c1O [Compound 2, L-DMDAP-Albicidin]	µg/mL	31
CCOc1c(NC(=O)c2ccc(NC(=O)c3ccc(NC(=O)[C@H](Cc4c[nH]nn4)NC(=O)c4ccc(NC(=O)/C(C)=C/c5ccc(O)cc5)cc4)cc3)c(OCC)c2O)ccc(C(=O)O)c1O [Compound 20]	µg/mL	16

Consider the record given below.
Please fill in: MIC reported for COc1c(NC(=O)c2ccc(NC(=O)c3ccc(NC(=O)[C@H](CC#N)NC(=O)c4ccc(NC(=O)/C(C)=C/c5ccc(O)cc5)cc4)cc3)c(OC)c2O)ccc(C(=O)O)c1O [Albicidin] = 63

====

Kindly supply the reported MIC values for the records listed here.
- System: E. coli DSM 1116
- testMethodNotes: Microdilution assay, MIC
- Assay type: cell-based
- conditionDetails: Escherichia coli, DSM1116, 20 h, read-out: MIC E. coli DSM1116
- Protocol: The tests were performed using the micro dilution method. The determination of MIC values was performed according to the ninth edition of the Approved Standard M07-A9 (CLSI. Methods for Dilution Antimicrobial Susceptibility Tests for Bacteria That Grow Aerobically; Approved Standard—Ninth Edition. CLSI document M07-A9. Wayne, Pa.: Clinical and Laboratory Standards Institute; 2012.) […] Both microdilution trays and agar plates were incubated at 37° C. for 20 h and subsequently analyzed visually.
Answers are plain numbers, in µg/mL.

# count of solved cases: 2
molecule	unitOfMeasure	MIC
COc1c(NC(=O)c2ccc(NC(=O)c3ccc(NC(=O)[C@H](CC#N)NC(=O)c4ccc(NC(=O)/C(C)=C/c5ccc(O)cc5)cc4)c(O)c3)c(OC)c2O)ccc(C(=O)O)c1O	µg/mL	2000
COc1c(NC(=O)c2ccc(NC(=O)c3ccc(NC(=O)C(Cc4cn(C)cn4)NC(=O)c4ccc(NC(=O)/C(C)=C/c5ccc(O)cc5)cc4)cc3)c(OC)c2O)ccc(C(=O)O)c1O (stereo not drawn)	µg/mL	125

Please fill in: MIC reported for COc1c(NC(=O)c2ccc(NC(=O)c3ccc(NC(=O)[C@H](CC#N)NC(=O)c4ccc(NC(=O)/C(C)=C/c5ccc(O)cc5)cc4)cc3)c(OC)c2O)ccc(C(=O)O)c1O = 63

====

Kindly supply the reported MHK values for the records listed here.
- Tested on: Staphylococcus aureus PEG 13-71-26
- testMethodNotes: MHK against further strains (Table 2)
- Assay type: cell-based
- conditionDetails: Nr. 27 Staphylococcus aureus PEG 13-71-26, clinical isolate
One number for each entry, in mg/L.

# count of solved cases: 3
molecule	tgt	measuredMetric	dataValue
COc1c(NC(=O)c2ccc(NC(=O)c3ccc(NC(=O)C(Cc4c[nH]nn4)NC(=O)c4ccc(NC(=O)/C(C)=C/c5ccc(O)cc5)cc4)cc3)c(OC)c2O)ccc(C(=O)O)c1O (stereo not shown)	Staphylococcus aureus PEG 13-71-26	MHK	0.125
COc1c(NC(=O)c2ccc(NC(=O)c3ccc(NC(=O)[C@H](CN(C)C)NC(=O)c4ccc(NC(=O)/C(C)=C/c5ccc(O)cc5)cc4)cc3)c(OC)c2O)ccc(C(=O)O)c1O	Staphylococcus aureus PEG 13-71-26	MHK	32
COc1c(NC(=O)c2ccc(NC(=O)c3ccc(NC(=O)[C@@H](CN(C)C)NC(=O)c4ccc(NC(=O)/C(C)=C/c5ccc(O)cc5)cc4)cc3)c(OC)c2O)ccc(C(=O)O)c1O	Staphylococcus aureus PEG 13-71-26	MHK	32

Consider the record given below.
Please fill in: MHK reported for COc1c(NC(=O)c2ccc(NC(=O)c3ccc(NC(=O)[C@H](Cc4c[nH]cn4)NC(=O)c4ccc(NC(=O)/C(C)=C/c5ccc(O)cc5)cc4)cc3)c(OC)c2O)ccc(C(=O)O)c1O = 4
